Hi there, I'd appreciate the recorded ELISA Signal-blank (100 nM Fab) for every entry that follows.
biological target: T1, Recombinant Human DLL4 (delta-like protein 4) (human, UniProt Q9NR61 27-524); assay: ELISA, DLL4 coated on plate, Fab at 100 nM
T1 construct: also called rHuman DLL4; Delta-like 4
Lab note: jot the number down without any unit.

Lookup: Please report the recorded ELISA Signal-blank (100 nM Fab) for Fab VH5-51_IGHD5-18*01>3_IGHJ4*01 G100K/G104T G24T/S28R/G35V & V3-4_IGLJ1*01 V91L/S96P S52L (Fab, V domains shown, Fab expressed in E. coli; heavy chain vector adds CH1 with His6 and Flag tags, light chain vector adds lambda CL; also called H:KT TRV & L:LP S52L) VH: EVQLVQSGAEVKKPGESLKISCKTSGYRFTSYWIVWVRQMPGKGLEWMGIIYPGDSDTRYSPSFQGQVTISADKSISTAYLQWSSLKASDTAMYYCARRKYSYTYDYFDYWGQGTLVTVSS VL: QTVVTQEPSFSVSPGGTVTLTCGLSSGSVSTSYYPSWYQQTPGQAPRTLIYLTNTRSSGVPDRFSGSILGNKAALTITGAQADDESDYYCLLYMGPGISYVFGTGTKVTVL .
Found: 0.4

Lookup: Next up: Fab VH5-51_IGHD5-18*01>3_IGHJ4*01 G100K/G104T G24T/S28R/G35V & V3-4_IGLJ1*01 V91L/S96P T53D (Fab, V domains shown, Fab expressed in E. coli; heavy chain vector adds CH1 with His6 and Flag tags, light chain vector adds lambda CL; also called H:KT TRV & L:LP T53D) VH: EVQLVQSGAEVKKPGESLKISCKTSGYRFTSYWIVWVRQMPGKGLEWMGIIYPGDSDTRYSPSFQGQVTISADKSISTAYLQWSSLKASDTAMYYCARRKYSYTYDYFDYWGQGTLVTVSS VL: QTVVTQEPSFSVSPGGTVTLTCGLSSGSVSTSYYPSWYQQTPGQAPRTLIYSDNTRSSGVPDRFSGSILGNKAALTITGAQADDESDYYCLLYMGPGISYVFGTGTKVTVL
Found: 0.16

Lookup: And for Fab VH5-51_IGHD5-18*01>3_IGHJ4*01 G100K/G104T G24T/S28R/G35V & V3-4_IGLJ1*01 V91L/S96P T53E (Fab, V domains shown, Fab expressed in E. coli; heavy chain vector adds CH1 with His6 and Flag tags, light chain vector adds lambda CL; also called H:KT TRV & L:LP T53E) VH: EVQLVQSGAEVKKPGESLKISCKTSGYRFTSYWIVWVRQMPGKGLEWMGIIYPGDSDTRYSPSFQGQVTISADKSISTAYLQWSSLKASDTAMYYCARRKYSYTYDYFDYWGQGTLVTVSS VL: QTVVTQEPSFSVSPGGTVTLTCGLSSGSVSTSYYPSWYQQTPGQAPRTLIYSENTRSSGVPDRFSGSILGNKAALTITGAQADDESDYYCLLYMGPGISYVFGTGTKVTVL ?
Found: 0.09

Lookup: Try this binder next: Fab VH5-51_IGHD5-18*01>3_IGHJ4*01 G100K/G104T G24T/S28R/G35V & V3-4_IGLJ1*01 V91L/S96P S52H (Fab, V domains shown, Fab expressed in E. coli; heavy chain vector adds CH1 with His6 and Flag tags, light chain vector adds lambda CL; also called H:KT TRV & L:LP S52H) VH: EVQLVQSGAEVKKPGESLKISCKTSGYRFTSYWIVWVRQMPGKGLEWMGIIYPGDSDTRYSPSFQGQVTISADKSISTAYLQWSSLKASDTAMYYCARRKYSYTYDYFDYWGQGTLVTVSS VL: QTVVTQEPSFSVSPGGTVTLTCGLSSGSVSTSYYPSWYQQTPGQAPRTLIYHTNTRSSGVPDRFSGSILGNKAALTITGAQADDESDYYCLLYMGPGISYVFGTGTKVTVL
Found: 0.44

Lookup: Another: Fab VH5-51_IGHD5-18*01>3_IGHJ4*01 G100K/G104T G24T/S28R/G35V & V3-4_IGLJ1*01 V91L/S96P S52F (Fab, V domains shown, Fab expressed in E. coli; heavy chain vector adds CH1 with His6 and Flag tags, light chain vector adds lambda CL; also called H:KT TRV & L:LP S52F) VH: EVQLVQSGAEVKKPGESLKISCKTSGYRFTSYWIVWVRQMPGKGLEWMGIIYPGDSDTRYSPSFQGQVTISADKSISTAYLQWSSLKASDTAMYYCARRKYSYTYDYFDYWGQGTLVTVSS VL: QTVVTQEPSFSVSPGGTVTLTCGLSSGSVSTSYYPSWYQQTPGQAPRTLIYFTNTRSSGVPDRFSGSILGNKAALTITGAQADDESDYYCLLYMGPGISYVFGTGTKVTVL
Found: 0.33

Data origin, for the record: patent US20120316071A1
